Biological target: human A1 receptor subtype (Homo sapiens, UniProt P30542)
Sequence (P30542 1-326): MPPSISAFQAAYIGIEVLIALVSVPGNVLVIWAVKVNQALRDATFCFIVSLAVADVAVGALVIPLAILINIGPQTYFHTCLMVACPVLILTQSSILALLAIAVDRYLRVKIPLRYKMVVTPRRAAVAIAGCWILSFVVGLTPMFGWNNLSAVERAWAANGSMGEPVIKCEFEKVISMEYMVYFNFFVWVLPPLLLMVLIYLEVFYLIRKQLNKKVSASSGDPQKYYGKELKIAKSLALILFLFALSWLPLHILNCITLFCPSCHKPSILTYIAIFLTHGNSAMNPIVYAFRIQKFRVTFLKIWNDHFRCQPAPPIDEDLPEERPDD
Assay: biochemical
Conditions: A1 Binding Ki (nM), Table 10, Effect of N6-Substituent
observable: Ki (nM)

Example cases with answers are listed next.
Input line: If you can, please state the reported Ki value of `Cc1[nH]c2nc(-c3ccccc3)nc(NCCNC(=O)C(C)C)c2c1C` .
Output line: 147

Input line: Now try `CCC(=O)NCCNc1nc(-c2ccccc2)nc2[nH]c(C)c(C)c12` .
Output line: 26.7

[P] CC(=O)OCCNc1nc(-c2ccccc2)nc2[nH]c(C)c(C)c12
[Q] Cc1[nH]c2nc(-c3ccccc3)nc(NCCNS(C)(=O)=O)c2c1C
Input line: Which gives the smaller Ki number: P or Q ? Reply with the label of the item you choose.
Output line: P

[a] CC(=O)C(=O)NCCNc1nc(-c2ccccc2)nc2[nH]c(C)c(C)c12
[b] Cc1[nH]c2nc(-c3ccccc3)nc(NCCNC(=O)CCN)c2c1C
Input line: a or b : whose Ki is greater? Pick one and reply with its label.
Output line: b
